Target: HLA-A3.2 (A*0301) (Homo sapiens)
Test: biochemical
Format: binding
No end group written: not given here.
measurement_type: log10 of IC50 (log10 of the value in nM)
Scale: log10; quantity: IC50; unit before log: nM

A selection of reference data follows.
| residue_codes | log10 of IC50 |
| --- | --- |
| CFFTRTWSR [Peptide 88.0382] | 4.13 |
| NLQGKLYYK [Peptide 88.0375] | 2.44 |
| EFTAFLDAFK [Peptide 88.0179] | 3.76 |

// query Send back HLA-A3.2 (A*0301) (Homo sapiens) log10 of IC50 of SLKCLRYRLK [Peptide 88.0217] only.
// result 1.87

// query Quote HLA-A3.2 (A*0301) (Homo sapiens) log10 of IC50 for entry LLQAVRIIK [Peptide 9017.0068] .
// result 2.03

// query For HLA-A3.2 (A*0301) (Homo sapiens), give log10 of IC50 of the listed sequence: AVNKMFCQLAK [Peptide 1556.46]
// result 1.74

// query Identify measured log10 of IC50 obtained with HLA-A3.2 (A*0301) (Homo sapiens) for ALKGLAQSK [Peptide 88.0416] .
// result 1.81

// query Specify the recorded log10 of IC50 for KSFFSRTWCK [Peptide 88.0170] , system: HLA-A3.2 (A*0301) (Homo sapiens).
// result 0.90

// query Report log10 of IC50 under test system HLA-A3.2 (A*0301) (Homo sapiens) for RLIDRIRER [Peptide 9017.0123] .
// result 1.56

// query Quote HLA-A3.2 (A*0301) (Homo sapiens) log10 of IC50 for entry GSLQYLALK [Peptide 9017.0096] .
// result 1.23

* * *

Molecular target: DRB1*0901 (Homo sapiens, UniProt P01903+P01911, A100R/A103E/D57H/D86V/F55Y/F60I/F76Y/I96F/K127E/L162R/M171V/P40D/Q125H/Q99R/R33Q/R42F/S133A/S66N/T210M/V115G/W38K/Y107V/Y59G/Y89S)
Test: biochemical
Type: binding
No end group written: not given here.
measurement_type: log10 of IC50 (log10 of the value in nM)
Could you please treat all values as log10 of IC50 in nM?

Here are 2 sequences together with their reported answers.
| residue_codes | log10 of IC50 |
| --- | --- |
| GVYYIKDGDTTYYVQ [Peptide 90.0216] | 3.21 |
| RLTVAKLMSNLLSIP [Peptide 89.0065] | 3.00 |

// query State its log10 of IC50 for this sequence: SADDLRAFQQLFLNT [Peptide 1543.07]
// result 2.75

// query Tell me measured log10 of IC50 for EVHVGGQVIVCPASV [Peptide 90.0015] please.
// result 3.41

// query Identify log10 of IC50 associated with the sequence ESDMAFEYALLADSN [Peptide 90.0055]
// result 2.92

// query Give me measured log10 of IC50, please, for this sequence: CIHSTATDLRTLQQM [Peptide 1543.45]
// result 4.28

// query Specify measured log10 of IC50 for KNRLTVAKLMSNLLS [Peptide 89.0064] .
// result 3.43

* * *

The reader will find reported IC50 values listed item by item below.
Target: B*5301 (Homo sapiens, UniProt P01889, A329T/A93T/A95T/C349S/D201E/D98Y/E176V/E187L/E204Q/E69T/G107R/I218V/K202T/L105A/L119I/N104I/Q94N/R106L/R155S/R180L/S101N/S121R/S35A/S48A/T118I/V127L/V306I/V36M/Y140S/Y91F)
Assay: biochemical
Conditions: B*5301 (nM)
Numeric only. Scale: nM

| compound | IC50 / nM |
| --- | --- |
| CC(C)C[C@H](NC(=O)[C@@H](NC(=O)[C@H](Cc1c[nH]c2ccccc12)NC(=O)[C@H](CCC(=O)O)NC(=O)[C@H](Cc1c[nH]cn1)NC(=O)[C@H](CC(C)C)NC(=O)[C@@H]1CCCN1C(=O)[C@@H]1CCCN1C(=O)[C@@H](N)Cc1ccc(O)cc1)C(C)C)C(=O)O [15.157] | 3960 |
| CC[C@H](C)[C@H](NC(=O)[C@@H]1CCCN1C(=O)[C@@H](N)CCCCN)C(=O)N[C@H](C(=O)N[C@@H](CCC(N)=O)C(=O)N[C@@H](Cc1ccc(O)cc1)C(=O)N[C@@H](CC(=O)O)C(=O)N[C@@H](CC(N)=O)C(=O)N[C@@H](Cc1ccccc1)C(=O)O)C(C)C [15.185] | 2040 |
| CSCC[C@H](NC(=O)[C@H](CC(C)C)NC(=O)[C@H](C)NC(=O)[C@@H]1CCCN1C(=O)[C@@H](N)Cc1ccc(O)cc1)C(=O)N1CCC[C@H]1C(=O)N[C@@H](CC(C)C)C(=O)N[C@@H](Cc1ccc(O)cc1)C(=O)N[C@@H](C)C(=O)O [16.008] | 2580 |
| CC(C)C[C@H](NC(=O)[C@H](CO)NC(=O)[C@H](CCCNC(=N)N)NC(=O)[C@H](CC(C)C)NC(=O)[C@H](CO)NC(=O)[C@H](C)NC(=O)[C@H](CC(C)C)NC(=O)[C@@H]1CCCN1C(=O)[C@@H](N)Cc1ccc(O)cc1)C(=O)N[C@@H](Cc1ccccc1)C(=O)O [15.268] | 150 |

// query Supply IC50 value. Item: CC[C@H](C)[C@H](NC(=O)[C@@H](NC(=O)[C@H](Cc1ccccc1)NC(=O)[C@H](CC(N)=O)NC(=O)[C@@H](NC(=O)[C@@H](NC(=O)[C@H](CS)NC(=O)[C@@H]1CCCN1C(=O)[C@@H](N)Cc1ccc(O)cc1)[C@@H](C)O)C(C)C)[C@@H](C)O)C(=O)O [15.047]
// result 102

// query Name the recorded IC50 of the item CSCC[C@H](NC(=O)[C@H](C)NC(=O)[C@H](C)NC(=O)[C@@H]1CCCN1C(=O)[C@@H](N)Cc1c[nH]cn1)C(=O)N1CCC[C@H]1C(=O)N[C@@H](Cc1c[nH]cn1)C(=O)N[C@@H](CC(C)C)C(=O)N[C@@H](CC(C)C)C(=O)O [15.036] in your answer.
// result 580

// query Give the value of IC50 reported for the following: CC[C@H](C)[C@H](NC(=O)[C@@H]1CCCN1C(=O)[C@@H](N)CC(C)C)C(=O)N[C@@H](Cc1ccccc1)C(=O)N[C@@H](Cc1ccccc1)C(=O)N[C@@H](CS)C(=O)N[C@@H](CC(C)C)C(=O)N[C@@H](Cc1c[nH]c2ccccc12)C(=O)N[C@H](C(=O)N[C@@H](Cc1ccc(O)cc1)C(=O)O)C(C)C [15.215]
// result 16400

* * *

Target: DRB1*1302 (Homo sapiens, UniProt P01903+P01911, A100E/A169T/K41T/L162R/M171V/P40S/Q125H/Q178H/Q39Y/Q99D/R42S/S66N/T262R/V115G/W38E/Y61H)
Experiment: biochemical
Type: binding
No end group written: not given here.
measurement_type: pIC50
Just so you know, pIC50 here is -log10 of the concentration in molar units; reply with that number alone.

# example entries with known answers
| residue_codes | reported |
| --- | --- |
| NHQVVPALSVSKAKA [Peptide 89.0168] | 6.05 |
| GGDWKQIVMFLRYQG [Peptide 89.0013] | 6.05 |
| SRVIVCPTSIPSDQI [Peptide 90.0027] | 5.70 |
| RLTVSKLMSQLLNIP [Peptide 89.0100] | 8.14 |
| ELQMALKGLAQSKYN [Peptide 90.0005] | 5.00 |

// query Answer with the recorded pIC50 of ESVFSSDEISFAGIV [Peptide 90.0195] only.
// result 6.63

* * *

Property: IC50; scope: individual compounds
Target: DRB1*1501 (Homo sapiens, UniProt P01903+P01911)
Experiment: biochemical
Type: binding

// query Give me measured IC50, please, for this compound: CC(C)C[C@H](NC(=O)[C@H](CCC(N)=O)NC(=O)[C@H](CCCCN)NC(=O)[C@@H](NC(=O)[C@H](CC(C)C)NC(=O)[C@H](CCC(N)=O)NC(=O)[C@@H](NC(=O)[C@H](C)NC(=O)[C@H](CO)NC(=O)[C@@H](NC(=O)[C@@H](NC(=O)[C@H](CC(=O)O)NC(=O)[C@H](CC(=O)O)NC(=O)[C@@H](N)CO)[C@@H](C)O)C(C)C)[C@@H](C)O)C(C)C)C(=O)N[C@@H](CCC(N)=O)C(=O)O [Peptide 1601.13]
// result > 20 µM

// query Give recorded IC50. CC[C@H](C)[C@H](NC(=O)[C@H](C)NC(=O)[C@H](CCCCN)NC(=O)[C@H](Cc1c[nH]cn1)NC(=O)[C@H](C)NC(=O)[C@H](CCCCN)NC(=O)[C@H](CO)NC(=O)[C@H](CCCCN)NC(=O)[C@H](CO)NC(=O)[C@@H](NC(=O)[C@H](CC(N)=O)NC(=O)[C@H](Cc1ccc(O)cc1)NC(=O)[C@H](C)N)[C@@H](C)CC)C(=O)N[C@@H](CCC(=O)O)C(=O)N[C@@H](CC(C)C)C(=O)O [Peptide 89.0159]
// result > 20 µM

// query For the compound CC[C@H](C)[C@H](NC(=O)[C@@H](NC(=O)[C@@H]1CCCN1C(=O)[C@@H](NC(=O)[C@@H](NC(=O)[C@H](CC(N)=O)NC(=O)CNC(=O)[C@H](CO)NC(=O)[C@H](CS)NC(=O)[C@@H](NC(=O)[C@H](CCCCN)NC(=O)[C@@H](N)CCCNC(=N)N)C(C)C)[C@@H](C)O)[C@@H](C)O)[C@@H](C)CC)C(=O)N[C@@H](Cc1c[nH]cn1)C(=O)N[C@@H](CC(C)C)C(=O)N[C@@H](CCCCN)C(=O)O [Peptide 1601.43] , give its measured IC50 value.
// result 8.05 µM

// query Specify IC50 for CC(C)[C@H](NC(=O)[C@H](CCC(=O)O)NC(=O)[C@H](Cc1c[nH]c2ccccc12)NC(=O)[C@@H](NC(=O)CNC(=O)[C@@H](NC(=O)[C@H](CC(N)=O)NC(=O)CNC(=O)[C@H](Cc1ccc(O)cc1)NC(=O)[C@H](CCCCN)NC(=O)[C@@H](N)CCC(=O)O)[C@@H](C)O)[C@@H](C)O)C(=O)N[C@@H](Cc1c[nH]cn1)C(=O)N[C@@H](Cc1ccccc1)C(=O)NCC(=O)N[C@@H](CC(N)=O)C(=O)O [Peptide 1601.11] and stop.
// result > 20 µM

// query Supply measured IC50 of CC[C@H](C)[C@H](NC(=O)[C@H](CO)NC(=O)[C@H](CO)NC(=O)[C@H](CC(=O)O)NC(=O)[C@H](C)NC(=O)[C@H](CC(N)=O)NC(=O)[C@@H](NC(=O)[C@H](Cc1ccc(O)cc1)NC(=O)[C@H](C)NC(=O)[C@@H](NC(=O)CNC(=O)[C@H](CCCNC(=N)N)NC(=O)[C@@H](N)CCC(=O)O)C(C)C)[C@@H](C)CC)C(=O)N[C@@H](CCC(=O)O)C(=O)NCC(=O)O [Peptide 68.0109] in your reply.
// result > 20 µM
